Tested on: SK-MEL-2 melanoma
Assay: NCI-60 one-dose screen, 48 h (100 = growth as untreated, 0 = no growth, -100 = all killed)
Conditions: 10 µM unless noted
Compounds without any hit were thinned out: in the full panel of roughly 83,000, 20% have a hit.
readoutKind: growth (%)
Write the number in % without appending the unit.

{"columns": ["compound", "unitTag", "growth"],
 "data": [
  ["CCC(C)Nc1ccc(N)cc1 (stereo not given)", "%", 7.8],
  ["NN=C(c1ccc(Cl)cc1)c1ccc(Cl)cc1", "%", 121],
  ["COc1ccc2c(c1)OC(N)=C(C#N)C2c1ccc(F)c(F)c1 (stereo not given)", "%", 32.9]
]}

**Query** Short answer please: growth, SK-MEL-2 melanoma, entry CN1C(=O)C2(SCC(C(=O)NCC(=O)OC(C)(C)C)N2C(=O)C2CCCCC2)c2ccccc21 (stereo not given)
**Result** 86.9

**Query** Short answer please: growth, SK-MEL-2 melanoma, entry `Cc1ccc[n+](CC(=O)c2cccc3ccccc23)c1`
**Result** 106
